Assayed System: Aurora kinase B (Homo sapiens)
Sequence (Q96GD4 whole entry): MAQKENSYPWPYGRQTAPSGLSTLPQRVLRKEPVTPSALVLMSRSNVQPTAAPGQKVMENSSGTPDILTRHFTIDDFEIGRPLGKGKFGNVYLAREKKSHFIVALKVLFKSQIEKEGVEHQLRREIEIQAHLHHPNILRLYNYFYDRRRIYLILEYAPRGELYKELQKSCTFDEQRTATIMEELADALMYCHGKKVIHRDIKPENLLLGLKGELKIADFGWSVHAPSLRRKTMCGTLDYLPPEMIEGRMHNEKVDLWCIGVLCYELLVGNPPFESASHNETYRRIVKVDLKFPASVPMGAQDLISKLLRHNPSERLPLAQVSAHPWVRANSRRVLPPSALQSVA
Assay Comment: Inhibition Assay: Kinase assays were performed at Reaction Biology Corp., Malvern, Pa., USA, using the following general procedure:1) Prepare indicated substrate in freshly prepared Base Reaction Buffer (20 mM Hepes pH 7.5, 10 mM MgCl2, 1 mM EGTA, 0.02% Brij35, 0.02 mg/ml BSA, 0.1 mM Na3VO4, 2 mM DTT, 1% DMSO).2) Deliver cofactors (1.5 mM CaCl2, 16 ug/mL Calmodulin, 2 mM MnCl2) to the substrate solution above.3) Deliver indicated kinase into the substrate solution and gently mix4) Deliver varying concentrations of test compound in DMSO into the kinase reaction mixture.5) Deliver 33P-ATP (specific activity 0.01 uCi/uL final) into the reaction mixture to initiate the reaction.6) Incubate kinase reaction for 120 min at room temperature.7) Reactions are spotted onto P81 ion exchange filter paper (Whatman #3698-915)8) Unbound phosphate is removed by washing filters extensively in 0.75% phosphoric acid.9) 33P signal was determined using Typhoon phosphorimagers (GE Healthcare).
Assay Endpoint: IC50 (µM)
Report the figure in µM without appending any unit label.

# input Indicate the recorded IC50 value for this compound: `CCc1ccc(-c2nc(C(N)=O)c(-c3ccc(N4CCNC(C)(C)C4)cc3)o2)c2cc[nH]c12`
# output 0.012
